Biological target: Sut1 (UniProt P53032)
Sequence: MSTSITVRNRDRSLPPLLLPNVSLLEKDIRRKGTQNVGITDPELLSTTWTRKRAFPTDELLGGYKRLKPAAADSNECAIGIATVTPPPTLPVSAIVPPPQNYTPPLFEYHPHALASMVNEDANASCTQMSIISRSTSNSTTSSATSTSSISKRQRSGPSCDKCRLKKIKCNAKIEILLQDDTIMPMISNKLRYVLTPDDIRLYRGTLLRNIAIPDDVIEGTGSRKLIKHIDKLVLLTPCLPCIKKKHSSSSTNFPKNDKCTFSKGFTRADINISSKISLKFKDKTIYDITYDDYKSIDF
Assay: PBM E-score (8-mer binding enrichment) (E-score (-0.5 to 0.5)); higher = stronger / more preferred TF binding
Conditions: protein concentration: 200 nM; construct: GST-full length
Over roughly 33,000 sequences, “E-score (-0.5 to 0.5)” has its median near -0.017; the highest 2% begin near 0.3. Shown is part of a subset that was picked to be rich in the highest values.
Quick rule: PBM E-score of at least 0.2 means Y, below that means N.

In [3]: df
Out[3]:
    seq_text  class_label
 0  TTAATAAA            Y
 1  CGGGGACA            N
 2  CAGTCCCG            N
 3  AAATAATG            Y
 4  AAATAATT            Y
 5  GAATTCAC            N
 6  CAGGTTAG            N
 7  ACCTGTGG            N
 8  CAGTCCGA            Y
 9  AGCCTTTG            N
10  ATAATAAT            Y
11  ATATAAAG            N
12  ATATAAAT            Y
13  AAATAAAG            Y
14  ATATAAAC            Y
15  ATAATATG            Y
16  ACTTAGCC            N
17  CCAGAAAC            N
18  GAGTCCGA            Y
19  AAGAGACC            N
20  CAGTCCAG            N
21  AAATAATA            Y
22  CCATCTCC            Y
23  ATGTAATA            Y
24  AGTTTTTA            N
25  TAGTCCGA            Y
26  ACCAAACC            N
27  GGGATACA            N
28  CCGTCCGA            N

###

Biological target: Sut1 (UniProt P53032)
Sequence: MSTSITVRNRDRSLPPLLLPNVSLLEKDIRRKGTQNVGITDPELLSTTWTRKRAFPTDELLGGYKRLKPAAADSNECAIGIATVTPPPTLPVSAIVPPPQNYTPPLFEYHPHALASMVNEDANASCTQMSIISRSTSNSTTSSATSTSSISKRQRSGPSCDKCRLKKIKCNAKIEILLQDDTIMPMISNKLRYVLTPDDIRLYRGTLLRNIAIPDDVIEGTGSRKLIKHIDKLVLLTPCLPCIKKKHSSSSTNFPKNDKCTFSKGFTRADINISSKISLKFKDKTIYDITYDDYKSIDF
Test: PBM E-score (8-mer binding enrichment) (E-score (-0.5 to 0.5)); higher = stronger / more preferred TF binding
Conditions: protein concentration: 200 nM; construct: GST-full length
Whole data set: some 33,000 sequences, median “E-score (-0.5 to 0.5)” near -0.017, cut for the highest 2% near 0.3. What follows is part of a selection rich in the highest values, with near analogues and random picks from the rest.
Measure Name: PBM E-score

>>> print(df.to_string())
    seq_text  measure_name  test_result
 0  ATATGAGG   PBM E-score      -0.0891
 1  ATGGAGTG   PBM E-score      -0.0878
 2  TTATTAAA   PBM E-score        0.273
 3  GTTTAAAC   PBM E-score         0.31
 4  AAAACGCA   PBM E-score      -0.0411
 5  GATGGAGA   PBM E-score       0.0416
 6  GAGGAGTA   PBM E-score      -0.0389
 7  AAAATTAA   PBM E-score        0.221
 8  GGCGTCGA   PBM E-score       -0.167
 9  TAGTTATA   PBM E-score        0.318
10  ATCTGGTG   PBM E-score       -0.015
11  GTTGCGCA   PBM E-score       -0.226
12  GCGGAGGA   PBM E-score       -0.161
13  CTACACCC   PBM E-score       -0.286
14  CTATTAAA   PBM E-score       0.0826
15  TTCGCAAA   PBM E-score        0.303
16  ACACAACA   PBM E-score        0.128

###

Target: Sut1 (UniProt P53032)
Sequence: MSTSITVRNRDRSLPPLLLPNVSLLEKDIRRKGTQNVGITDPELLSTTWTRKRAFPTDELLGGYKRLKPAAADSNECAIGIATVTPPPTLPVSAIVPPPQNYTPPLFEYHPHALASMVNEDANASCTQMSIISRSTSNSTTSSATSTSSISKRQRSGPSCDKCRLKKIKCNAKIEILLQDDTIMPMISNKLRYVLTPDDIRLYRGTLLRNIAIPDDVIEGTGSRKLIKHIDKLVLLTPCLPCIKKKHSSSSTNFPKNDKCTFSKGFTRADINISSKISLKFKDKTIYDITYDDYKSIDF
Assay: PBM E-score (8-mer binding enrichment) (E-score (-0.5 to 0.5)); higher = stronger / more preferred TF binding
Settings: protein concentration: 200 nM; construct: GST-full length
Over roughly 33,000 sequences, “E-score (-0.5 to 0.5)” has its median near -0.017; the highest 2% begin near 0.3. This is one part of a sample in which the highest values are shown more often than they occur.
Measured PBM E-score values are reported for all entries that follow.
Measure Name: PBM E-score

>>> df
    seq_text  measure_name  test_result
 0  GGGAATAA   PBM E-score        0.233
 1  CGGAGTGA   PBM E-score        0.451
 2  CCAAAAGG   PBM E-score      -0.0868
 3  CTGAGTGC   PBM E-score       -0.199
 4  AAGTGTCC   PBM E-score       0.0158
 5  TCGGAGCA   PBM E-score          0.3
 6  AACACTCC   PBM E-score        0.256
 7  CCGGAGCG   PBM E-score        0.234
 8  CAACCTAC   PBM E-score       0.0861
 9  CAAACTCA   PBM E-score       0.0357
10  CCGGGTAA   PBM E-score        0.136
11  CACACTCC   PBM E-score        0.158
12  TGGAATAA   PBM E-score        0.122
13  CGGGAGAG   PBM E-score      -0.0788
14  CCGGAGCC   PBM E-score        0.396
15  GAAACTCA   PBM E-score       0.0707
16  CTCGCCCC   PBM E-score       -0.298
17  GGGAATAC   PBM E-score      -0.0577

###

Target: Sut1 (UniProt P53032)
Sequence: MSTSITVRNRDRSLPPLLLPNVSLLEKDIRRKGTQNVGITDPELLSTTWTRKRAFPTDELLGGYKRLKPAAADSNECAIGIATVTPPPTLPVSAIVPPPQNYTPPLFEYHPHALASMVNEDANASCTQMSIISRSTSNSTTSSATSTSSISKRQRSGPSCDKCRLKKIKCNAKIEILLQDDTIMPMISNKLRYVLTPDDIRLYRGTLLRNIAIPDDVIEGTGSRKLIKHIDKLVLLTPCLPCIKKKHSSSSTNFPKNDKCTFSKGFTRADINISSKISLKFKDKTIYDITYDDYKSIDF
Assay: PBM E-score (8-mer binding enrichment) (E-score (-0.5 to 0.5)); higher = stronger / more preferred TF binding
Conditions: protein concentration: 200 nM; construct: GST-full length
Over roughly 33,000 sequences, “E-score (-0.5 to 0.5)” has its median near -0.017; the highest 2% begin near 0.3. The sample as a whole holds a higher share of the highest values than the screen did.
Measure Name: PBM E-score

>>> print(df.to_string())
    seq_text  test_result
 0  CATCTCCA       -0.036
 1  TCTCCAAA      -0.0978
 2  CATCTCCC       -0.138
 3  CCCCGGGG        0.198
 4  AGTCTCCG        0.316
 5  AATCTCCG        0.454
 6  ATTCTCCG        0.409
 7  ACCAACGT      0.00237
 8  CAGTTGCA      -0.0927
 9  AAGTGAGC      -0.0565
10  CCAGGGTC       -0.265
11  ATTCTCCC      -0.0729
12  AACCTTTG       0.0541
